B1: Twister Ribozyme (parent)
chain: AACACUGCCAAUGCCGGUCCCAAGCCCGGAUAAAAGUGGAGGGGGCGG

# Variants of: B1
# protocol-notes: self-cleavage, relative activity (ratio to wild type); higher = more cleavage; co-transcriptional
Assign class by self-cleavage: not lower than 0.2 means true; lower than 0.2 means false.

Prompt: State whether the measured self-cleavage reaches 0.2, counting equality as reaching it, for A11U A23U
Response: true

Prompt: State whether the measured self-cleavage reaches 0.2, counting equality as reaching it, for A10G C19G
Response: true

Prompt: State whether the measured self-cleavage reaches 0.2, counting equality as reaching it, for C15U U37G
Response: true

Prompt: State whether the measured self-cleavage reaches 0.2, counting equality as reaching it, for C27G G47U
Response: false

Prompt: State whether the measured self-cleavage reaches 0.2, counting equality as reaching it, for U12G G28C
Response: true

Prompt: State whether the measured self-cleavage reaches 0.2, counting equality as reaching it, for C20U G41A
Response: false

Prompt: State whether the measured self-cleavage reaches 0.2, counting equality as reaching it, for G17C U18G
Response: false

Prompt: State whether the measured self-cleavage reaches 0.2, counting equality as reaching it, for A22G A23U
Response: false

Prompt: State whether the measured self-cleavage reaches 0.2, counting equality as reaching it, for A32U A35C
Response: true

Prompt: State whether the measured self-cleavage reaches 0.2, counting equality as reaching it, for C8A C20A
Response: false

Prompt: State whether the measured self-cleavage reaches 0.2, counting equality as reaching it, for A30U A32C
Response: true

Prompt: State whether the measured self-cleavage reaches 0.2, counting equality as reaching it, for A1G C27G
Response: false

Prompt: State whether the measured self-cleavage reaches 0.2, counting equality as reaching it, for A2C G17A
Response: false

Prompt: State whether the measured self-cleavage reaches 0.2, counting equality as reaching it, for G13A A22C
Response: true

Prompt: State whether the measured self-cleavage reaches 0.2, counting equality as reaching it, for G16U U31C
Response: true

Prompt: State whether the measured self-cleavage reaches 0.2, counting equality as reaching it, for G24A G45C
Response: false

Prompt: State whether the measured self-cleavage reaches 0.2, counting equality as reaching it, for A10G A30G
Response: true

Prompt: State whether the measured self-cleavage reaches 0.2, counting equality as reaching it, for U37G G41C
Response: false

Prompt: State whether the measured self-cleavage reaches 0.2, counting equality as reaching it, for G16A G47C
Response: true

Prompt: State whether the measured self-cleavage reaches 0.2, counting equality as reaching it, for C8U C9U
Response: false

Prompt: State whether the measured self-cleavage reaches 0.2, counting equality as reaching it, for C15A G42A
Response: false

Prompt: State whether the measured self-cleavage reaches 0.2, counting equality as reaching it, for C9U A10C
Response: true

Prompt: State whether the measured self-cleavage reaches 0.2, counting equality as reaching it, for A10U A33C
Response: true

Prompt: State whether the measured self-cleavage reaches 0.2, counting equality as reaching it, for C5A U12G
Response: true

Prompt: State whether the measured self-cleavage reaches 0.2, counting equality as reaching it, for A1U C46U
Response: false

Prompt: State whether the measured self-cleavage reaches 0.2, counting equality as reaching it, for G41C G47A
Response: true

Prompt: State whether the measured self-cleavage reaches 0.2, counting equality as reaching it, for C3U A30U
Response: true

Prompt: State whether the measured self-cleavage reaches 0.2, counting equality as reaching it, for C15G U18C
Response: false

Prompt: State whether the measured self-cleavage reaches 0.2, counting equality as reaching it, for C9U G41C
Response: false

Prompt: State whether the measured self-cleavage reaches 0.2, counting equality as reaching it, for C21U A33C
Response: false

Prompt: State whether the measured self-cleavage reaches 0.2, counting equality as reaching it, for C9G G43U
Response: false

Prompt: State whether the measured self-cleavage reaches 0.2, counting equality as reaching it, for C14G G44U
Response: false

Prompt: State whether the measured self-cleavage reaches 0.2, counting equality as reaching it, for G44U G47C
Response: true

Prompt: State whether the measured self-cleavage reaches 0.2, counting equality as reaching it, for C8A G44U
Response: true

Prompt: State whether the measured self-cleavage reaches 0.2, counting equality as reaching it, for G24U A32C
Response: false

Prompt: State whether the measured self-cleavage reaches 0.2, counting equality as reaching it, for A32G A33G
Response: true

Prompt: State whether the measured self-cleavage reaches 0.2, counting equality as reaching it, for C15A C46G
Response: true

Prompt: State whether the measured self-cleavage reaches 0.2, counting equality as reaching it, for G7A G16A
Response: true

Prompt: State whether the measured self-cleavage reaches 0.2, counting equality as reaching it, for C20U C25G
Response: false

Prompt: State whether the measured self-cleavage reaches 0.2, counting equality as reaching it, for C26U G39A
Response: false

Prompt: State whether the measured self-cleavage reaches 0.2, counting equality as reaching it, for A1G G47A
Response: true

Prompt: State whether the measured self-cleavage reaches 0.2, counting equality as reaching it, for C3G A33U
Response: true

Prompt: State whether the measured self-cleavage reaches 0.2, counting equality as reaching it, for A2G G43A
Response: false
